assay: yeast display, Sf9 membrane polyspecificity reagent, FACS + sequencing; frameworks hold sequencing errors
RECORDED METRIC: polyreactivity (PSR sort gate)

// known answers, use as guide
QVQLVESGGGLVQAGGSLRLSCAASGFTFASNAMGWYRPAPWKERELVAGISRTGTTTYYADSVKGRFTISRDNAKNTVYLQMNSLKPEDTAVYYCAASKQAVKYRSQRYYYWGQGTQVTVSS; high polyreactivity
QVQLVESGGGLVQAGGSLRLICAASGRTFAPYAMGWYRQAPGKEMQLVAAISSGGGNTYYADSVKGRFTISRDNAKNTVYLQMNSLKPEDTAVYYCNAAQRRGGLGYWGQGTQVTVSS; high polyreactivity
QVQLVESGGGLVQAGGSLRLSCAASGRIFSHYAMGWYRQAPGKERELVASITRGGTRTYADSVKGRFTISRDNAKNTVYLQMNSLKPEDSAVYYCAADGYAYYYEWSQGDLSYDHWGQVTQVTVSS; low polyreactivity
QVQLVESGGGLVQAGGSLRLSCAASGSTSRGYAMGWYRQAPGEERELVASITLSGGNTYYADSVKGRFTISRDNAKNTVYLQMNSLKPEDTAVYYCAADDRGSSYGHFTVEYGYWGQGTQVTVSS; low polyreactivity
QVQLVESGGGLVQAGGSLRLSCAASGITFPSYVMGWYRQAPGKEREFVAAITGSAGSTYYADSVKGRFTISRDNAKNTVYLQMNSLKPADTAVYYCAARVRYVNPKYYYWGQGTQVTVSS; high polyreactivity
QVQLVESGGGLVQAGGSLRLSCAASGGIFWVNAMGWYRQAPGKERELVAAISWSDDNTYYADSVKGRFTISRDNAKNTVYLQMNSLKPEDTAVYYCAKDFYDYGSFYWYEYWGQGTQVTVSS; high polyreactivity
QVQLVESGGGLVQAGGSLRLSCAASGSTFAANTMGWYRQAPGKERELVAAITVRGGSTYYADSVKGRFTISRDNAKNTVYLQMNSLKPEDTAGYYGAAERPPYGYLVVGYVSTQYYYWGQGTQVTVSS; low polyreactivity
QVQLVESGGGLVQAGGSLRLSCAASGNILIGNVMGWYRQAPGKERELVAAITSGGDTYYADSVKGRFTISRDNAKNTVYLQMNSLKPEDTAVYYCNAYYYFWGQGTQVTVSS; low polyreactivity

Record polyreactivity (PSR sort gate) for all entries; do not skip any.
1. QVQLVESGGVLVQAGGSLRLSCAASGSTFNSYVMGWYRQAPGKEREFVAAISWSGVRTYYADSVKGRFTISRDNAKNTVYLQMNSLKPEDTAVYYCAVRSGRRNYVRPAFGYWGQGTQVTVSS
2. QVQLVESGGGLVQAGGSLRLSCAASGSIFFVYAMGWYRQAPGKERELVAGISGRDGSTYYADSVKGRFTISRDNAKNTVYLQMNSLKPEDTAVYYSARVYWGQGTQVTVSS
3. QVQLVESGGGLVQAGGSLRLSCAASGIILREYTMGWYRQAPGKERELVAAISGSGGSTYYADSVKGRFTISRDNAKNTVYLQMNSLKPDDTAVYYCNAVIAAKARDAVVGSGMDYWGQGTQVTVSS
4. QFQLVESGGGLVQAGGSLRLSCAASGRTISHNVMGWYRQAPGKEWELVAAISRNGGRTYYADSVKGRFTISRDNAKNTVYLQLNSLKTEDTAVYYCAAEAYPEYYYWGLGTQVTVSS
5. QVQLVESGGGLFQAGGSLRLSCAASGFTIYHNAMRWYRQEPGKERELVAAISSSGDSTYYADSVKGRFTISRDNAKNTVYLQMNSLKPEDTAVYYCNDYFYYLSLYYYYWFNYDYWGQGTQVTVSS
6. QVQLVESGGGLVQAGGSLRLSCDASGSILPGYAMGWYRQEPGKEMELVAAISYRGTSTYYADSVKGRFTISRDNAKNTFYLQMNSLKPEDTAVYYCAAGGSWFRYPPSMDYWGQGTQVTVSS

["high polyreactivity", "low polyreactivity", "high polyreactivity", "high polyreactivity", "low polyreactivity", "high polyreactivity"]

###

experiment: yeast display, Sf9 membrane polyspecificity reagent, FACS + sequencing; frameworks hold sequencing errors
RECORDED METRIC: polyreactivity (PSR sort gate)

Reference set, count: 4
QVQLVESAGGLVQAGGSLRLSSAASGRIFKYNAMGWYRQAPGKERELVAAISSSGARTYYADSVKGRFTISRDNAKNTVYLQMNSLKPEDTAVYYCAVYYYDFTSTEYGYWGLGTQVTVSS; high polyreactivity
QVQLVESGGGLVQAGGSLRLSCDASGRTFPDYAIGWYIQAPGKESELVAAISGSGGSTYYADSVKGRFTISRDNAKNTVYLQMNSLKPEDTAVYYCAAEAETLLWYWFPSAVDYWGQGTQVTVSS; high polyreactivity
QVQLVESGGGLVQAGGSLRLSCAASGSIFFLNAMGWYRQAPGKERELVAAITNVGSTYYADSVKGRFTISRDNAKNTVYLQMNSLKPEDTAVYYCNADPGEVLVGYDYWGQGTEVTVSS; low polyreactivity
QVQLVESGGGLVQAGGSLRLSCAASGFTSRRYAMGWYRQAPGKERELVAAISWSGGSTYYADSVKGRFTISRDNAKNTVYLQMNSLKPEDTAVYYCAAKRYSSKRGLDYWGQGTQVTVSS; high polyreactivity

Kindly review the next sequence as well.
Return polyreactivity (PSR sort gate) for the following sequence: QVQLVESGGGLVQAGGSLRLSCAASGRIFPWNAMGWYRQAPGKDRELVAAISFSAGRTYYADSVKGRFTISRDNAKNTVYLQMNSLKPEDTAVYYCNARIGSPWVWTGIIGYEYWGQGTQVTVSS
low polyreactivity

###

experiment: yeast display, Sf9 membrane polyspecificity reagent, FACS + sequencing; frameworks hold sequencing errors
RECORDED METRIC: polyreactivity (PSR sort gate)

QVQLEESGGGLVQAGRSLRLISAASGRMFGWNAMGWYRQAPWKERELVASIRSGGRTNYADSVKGRFTISRDNAKNTVYLQMNSLKPEDTAVYYCAVGPYYQSTQIYDYWGQGTQVTVSS; low polyreactivity
QVQLVESGGGLVQAGGSLRLSCAASGSTFYYYAMGWYRQAPGKERELVAAISVSGASKYYADSVKGRFTISRDNAKNTVYLQMNSLKPEDTAVYYCAADEGYPGDGDYWGQGTQVTVSS; low polyreactivity
QVQLVESGGGLVQAGGSLRLSCAASGRTFGRYAMGWYRQAPGKERELVAAISWSGGSTYYADSVKGRFTISRDNAKNSVYLQMNSLKPEDTAVYYCAAYEHVYVYDYWGQGTQVTVSS; low polyreactivity
QVQLVESGGGLVQAGGSLRLSCAASGRIFDRYAMGWYRLAPGKERELVAAITTSSGGSTYYADSVKGRFTISRDNAMNTVYLQMQSLNPEDTAVYYCAADRRYNVIGEFGYWGQVTQVTVSS; low polyreactivity
QVQLVESVGGLVQAGGSLRLSCAASVYMFYDYDMGWYRQAPGKAREFVARITSDGSTYADSVKGRFTISRDNAKNTVYLQMNMLKPEDTAVYYCNRKSRSYFWSVQDSFKYDYWGQGTQVTVSS; low polyreactivity
QVQLVESGGGLVQAGGSLRLSSAASGSTFYLNTMGWYRQAPGKEREFVAAISARGGSTYYADSVKGRFTISRDNAKNTVYLQMNSLKPEDTAVYYCAAKFVRFYWNYDYWGQGTQVTVSS; high polyreactivity
QVQLVESGGGLVQAGGSLRLSCAASGITFYGYAMGWYRQAPGKERELVAAISESGGSTYYADSVKGRFTISRDNAKNTVYLQMNSLKPEDTAVYYCNAESYSTWSFGHRYEYDYWGQGTQVTVSS; low polyreactivity
QVQLVESGGGLVQAGGSLRLSCAASGGTFSYYAMGWYRQAPGKERELVAAISKRGGSTYYADSVKGRFTISRDNAKNTVYLQMNSLKPEETAVYYCARGYSWSVGYPRVQDMDYWGQGTQVTVSS; high polyreactivity
QVQLVESGGGLVQAGGSLRLSCAASGSIFRKYTMGWYRQAPGKERELVAAISGTAGRTYYADSVKGRFTISRDNAKNTVYLQMNSLKPEDTAVYYCAARRFGGYGYNYWGQGTQVTVSS; high polyreactivity
QVQLVESGGGLVQAGGSLRLSCAASGSTLNLYAMGWYRQAPGKEREVVAGITGGGSSTYYADSVKGRFTISRDNAKNTVYLQMNSLKPEDTAVYYCNVEPGYYYYRHWVAYSHGYGYWGQGTQVTVSS; low polyreactivity

Hi team, please reply with polyreactivity (PSR sort gate) for each item in this list.
1. QVQLVESGGGLVQAGGSLRLSCAASGRTLGLYAMGWYRQAPGKERELVAAITTSGGSTSYADSVKGRFTISRDNAKNTVYLQMNSLKPEDTAVYYCAARYLSYITGTSYYWGQGTQVTVSS
2. QVQLLESGGGLVQARGSLRISCAASGLTFFFYAMGWYRQAPGKERELVAAISFSGGSTYADSVKGRFTISRDNAKNTVYLQMNSLKPEDTAVYYCNAPPQFATFTYANWRQGTQVTVSS
3. QVQLVESGGGLVQAGGSLRLSCAASGIIFVSYMGWYRQAPGKERELVAAIRWSGGRTYYADSVKGRFTISRDNAKNTVYLQMNSLKPEDTAVYFCAADALRKPKIALYDYWGQGTQVTVSS

low polyreactivity
low polyreactivity
high polyreactivity
